Test system: PPARg DBDmut IVT, anti-PPARg (DBD mutation: PPARg1 K132A/R137A, NR concentration 270 nM)
Experiment: PBM binding z-score (relative to random genomic background probes); higher = stronger binding; sequences stand for … in GC…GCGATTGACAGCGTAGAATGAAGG
Mark 1.0 for reported PBM binding z-score of -0.01 or greater; mark 0.0 for anything smaller.

Examples with answers:
polymer_sequence=AGTCAAAGTTCAGGACGGGGTAACGTAAAGCACG class=1.0
polymer_sequence=GCAGACAGGTGAACCGCAGGTAACTCAGGGTGGC class=0.0
polymer_sequence=CCTACTGGGCCACGAACGGTCATTGATTCAGTGA class=0.0

Record CGTACTGGGCCAAAGGTCATTGATTCCAATGCTC ; criterion: PBM binding z-score no lower than -0.01. Met?
0.0

Record CGTCCAATGTCAATGCTAGGTCAGTGAAAGCATT ; criterion: PBM binding z-score no lower than -0.01. Met?
0.0

Record CGTCCAAGGTCAGCAGGTCAGTGAGAGCGACGTG ; criterion: PBM binding z-score no lower than -0.01. Met?
0.0

Record CTCGAAAGGTCGCTTGAGGTGAGTATACGGATAA ; criterion: PBM binding z-score no lower than -0.01. Met?
1.0

From: the supplement of paper PMC6555819
